Experiment: Solubility assessment of amorphous RAD1901-2HCl
Type: physicochemical
Conditions: organic solvent or mixture, thermodynamic from solid; Dimethyl sulfoxide; sample ID B11; read-out: Solubility assessment 10 vol.
reported.endpoint: solubility

Output solubility of CCNCCc1ccc(CN(CC)c2cc(OC)ccc2[C@@H]2CCc3cc(O)ccc3C2)cc1.Cl.Cl [amorphous RAD1901-2HCl]
> 100 mg/mL

----------
Assay: Solubility assessment of Sample 1 (majorly Form 1) in 24 solvent systems
Assay type: physicochemical
Details: MEK, 50 °C, organic solvent or mixture, thermodynamic from solid, MEK; sample ID A7; read-out: Solubility assessment 40 vol.
reported.endpoint: solubility

Output solubility of CCNCCc1ccc(CN(CC)c2cc(OC)ccc2[C@@H]2CCc3cc(O)ccc3C2)cc1.Cl.Cl [Sample 1]
< 25 mg/mL

----------
Assay: Solubility assessment of Sample 1 (majorly Form 1) in 24 solvent systems
Assay type: physicochemical
Details: nitromethane, 50 °C, organic solvent or mixture, thermodynamic from solid, Nitromethane; sample ID A21; read-out: Solubility assessment 20 vol.
Procedure: Solubility assessment was carried out on the Sample 1 of RAD1901-2HCl (majorly Form 1 shown by XRPD) in 24 solvent systems in HPLC vials (sample IDs: A1 to A24). […] After each addition of solvent, the system was stirred for 5 to 10 minutes at 25° C., then shaken at 50° C. for 5 to 10 minutes, and observations made. […] All solids recovered from maturation, cooling and evaporation experiments were analyzed by high resolution XRPD.
reported.endpoint: solubility

Output solubility of CCNCCc1ccc(CN(CC)c2cc(OC)ccc2[C@@H]2CCc3cc(O)ccc3C2)cc1.Cl.Cl
< 50 mg/mL

----------
Test: Solubility assessment of Sample 1 (majorly Form 1) in 24 solvent systems
Format: physicochemical
Conditions: dichloromethane, 50 °C, organic solvent or mixture, thermodynamic from solid, Dichloromethane; sample ID A18; read-out: Solubility assessment 20 vol.
reported.endpoint: solubility

Output solubility of CCNCCc1ccc(CN(CC)c2cc(OC)ccc2[C@@H]2CCc3cc(O)ccc3C2)cc1.Cl.Cl
< 50 mg/mL

----------
Experiment: Solubility assessment of Sample 1 (majorly Form 1) in 24 solvent systems
Assay type: physicochemical
Conditions: 1-propanol, 50 °C, organic solvent or mixture, thermodynamic from solid, 1-propanol; sample ID A8; read-out: Solubility assessment 40 vol.
reported.endpoint: solubility

Output solubility of CCNCCc1ccc(CN(CC)c2cc(OC)ccc2[C@@H]2CCc3cc(O)ccc3C2)cc1.Cl.Cl [Sample 1]
< 25 mg/mL

----------
Test: Solubility assessment of Sample 1 (majorly Form 1) in 24 solvent systems
Type: physicochemical
Settings: MEK, 50 °C, organic solvent or mixture, thermodynamic from solid, MEK; sample ID A7; read-out: Solubility assessment 20 vol.
reported.endpoint: solubility

Output solubility of CCNCCc1ccc(CN(CC)c2cc(OC)ccc2[C@@H]2CCc3cc(O)ccc3C2)cc1.Cl.Cl
< 50 mg/mL

----------
Test: Solubility assessment of amorphous RAD1901-2HCl
Type: physicochemical
Conditions: organic solvent or mixture, thermodynamic from solid; Acetone; sample ID B9; read-out: Solubility assessment 10 vol.
reported.endpoint: solubility

Output solubility of CCNCCc1ccc(CN(CC)c2cc(OC)ccc2[C@@H]2CCc3cc(O)ccc3C2)cc1.Cl.Cl [amorphous RAD1901-2HCl]
< 100 mg/mL

----------
Experiment: Solubility assessment of amorphous RAD1901-2HCl in water/organic solvent system
Format: physicochemical
Details: MeOH/H2O (95:5), organic solvent or mixture, thermodynamic from solid, MeOH/H2O (95:5); sample ID C6; read-out: Solubility assessment 10 vol.
reported.endpoint: solubility

Output solubility of CCNCCc1ccc(CN(CC)c2cc(OC)ccc2[C@@H]2CCc3cc(O)ccc3C2)cc1.Cl.Cl [amorphous RAD1901-2HCl]
> 100 mg/mL

----------
Assay: Solubility assessment of Sample 1 (majorly Form 1) in 24 solvent systems
Assay type: physicochemical
Conditions: 1,4-dioxane, 50 °C, organic solvent or mixture, thermodynamic from solid, 1,4-Dioxane; sample ID A14; read-out: Solubility assessment 20 vol.
reported.endpoint: solubility

Output solubility of CCNCCc1ccc(CN(CC)c2cc(OC)ccc2[C@@H]2CCc3cc(O)ccc3C2)cc1.Cl.Cl [Sample 1]
< 50 mg/mL

----------
Test: Solubility assessment of Sample 1 (majorly Form 1) in 24 solvent systems
Format: physicochemical
Conditions: 10% water/THF, 50 °C, organic solvent or mixture, thermodynamic from solid, 10% water/THF; sample ID A24; read-out: Solubility assessment 10 vol.
reported.endpoint: solubility

Output solubility of CCNCCc1ccc(CN(CC)c2cc(OC)ccc2[C@@H]2CCc3cc(O)ccc3C2)cc1.Cl.Cl
< 100 mg/mL

----------
Test: Solubility assessment of Sample 1 (majorly Form 1) in 24 solvent systems
Format: physicochemical
Settings: propyl acetate, 50 °C, organic solvent or mixture, thermodynamic from solid, Propyl acetate; sample ID A2; read-out: Solubility assessment 40 vol.
reported.endpoint: solubility

Output solubility of CCNCCc1ccc(CN(CC)c2cc(OC)ccc2[C@@H]2CCc3cc(O)ccc3C2)cc1.Cl.Cl
< 25 mg/mL

----------
Assay: Solubility assessment of Sample 1 (majorly Form 1) in 24 solvent systems
Format: physicochemical
Conditions: isopropyl acetate, organic solvent or mixture, thermodynamic from solid, Isopropyl acetate; sample ID A4; read-out: Solubility assessment 60 vol.
reported.endpoint: solubility

Output solubility of CCNCCc1ccc(CN(CC)c2cc(OC)ccc2[C@@H]2CCc3cc(O)ccc3C2)cc1.Cl.Cl
< 16.7 mg/mL

----------
Test: Solubility assessment of Sample 1 (majorly Form 1) in 24 solvent systems
Type: physicochemical
Conditions: toluene, 50 °C, organic solvent or mixture, thermodynamic from solid, Toluene; sample ID A15; read-out: Solubility assessment 40 vol.
reported.endpoint: solubility

Output solubility of CCNCCc1ccc(CN(CC)c2cc(OC)ccc2[C@@H]2CCc3cc(O)ccc3C2)cc1.Cl.Cl
< 25 mg/mL

----------
Assay: Solubility assessment of Sample 1 (majorly Form 1) in 24 solvent systems
Format: physicochemical
Settings: acetonitrile, 50 °C, organic solvent or mixture, thermodynamic from solid, Acetonitrile; sample ID A19; read-out: Solubility assessment 40 vol.
reported.endpoint: solubility

Output solubility of CCNCCc1ccc(CN(CC)c2cc(OC)ccc2[C@@H]2CCc3cc(O)ccc3C2)cc1.Cl.Cl
< 25 mg/mL

----------
Test: Solubility assessment of Sample 1 (majorly Form 1) in 24 solvent systems
Format: physicochemical
Conditions: 2-propanol, 50 °C, organic solvent or mixture, thermodynamic from solid, 2-propanol; sample ID A6; read-out: Solubility assessment 10 vol.
reported.endpoint: solubility

Output solubility of CCNCCc1ccc(CN(CC)c2cc(OC)ccc2[C@@H]2CCc3cc(O)ccc3C2)cc1.Cl.Cl
< 100 mg/mL

----------
Assay: Solubility assessment of amorphous RAD1901-2HCl
Assay type: physicochemical
Conditions: organic solvent or mixture, thermodynamic from solid; Methanol; sample ID B19; read-out: Solubility assessment 10 vol.
reported.endpoint: solubility

Output solubility of CCNCCc1ccc(CN(CC)c2cc(OC)ccc2[C@@H]2CCc3cc(O)ccc3C2)cc1.Cl.Cl [amorphous RAD1901-2HCl]
< 100 mg/mL

----------
Test: Solubility assessment of amorphous RAD1901-2HCl
Format: physicochemical
Details: organic solvent or mixture, thermodynamic from solid; n-Heptane; sample ID B1; read-out: Solubility assessment 10 vol.
reported.endpoint: solubility

Output solubility of CCNCCc1ccc(CN(CC)c2cc(OC)ccc2[C@@H]2CCc3cc(O)ccc3C2)cc1.Cl.Cl [amorphous RAD1901-2HCl]
< 100 mg/mL

----------
Assay: Solubility assessment of Sample 1 (majorly Form 1) in 24 solvent systems
Assay type: physicochemical
Details: 1-propanol, 50 °C, organic solvent or mixture, thermodynamic from solid, 1-propanol; sample ID A8; read-out: Solubility assessment 10 vol.
reported.endpoint: solubility

Output solubility of CCNCCc1ccc(CN(CC)c2cc(OC)ccc2[C@@H]2CCc3cc(O)ccc3C2)cc1.Cl.Cl [Sample 1]
< 100 mg/mL

----------
Assay: Solubility assessment of amorphous RAD1901-2HCl in water/organic solvent system
Format: physicochemical
Conditions: anhydrous ethyl acetate, organic solvent or mixture, thermodynamic from solid, Ethyl acetate (anhydrous); sample ID C9; read-out: Solubility assessment 30 vol
reported.endpoint: solubility

Output solubility of CCNCCc1ccc(CN(CC)c2cc(OC)ccc2[C@@H]2CCc3cc(O)ccc3C2)cc1.Cl.Cl [amorphous RAD1901-2HCl]
< 33.3 mg/mL

----------
Test: Solubility assessment of Sample 1 (majorly Form 1) in 24 solvent systems
Format: physicochemical
Details: TBME, 50 °C, organic solvent or mixture, thermodynamic from solid, TBME; sample ID A13; read-out: Solubility assessment 20 vol.
reported.endpoint: solubility

Output solubility of CCNCCc1ccc(CN(CC)c2cc(OC)ccc2[C@@H]2CCc3cc(O)ccc3C2)cc1.Cl.Cl
< 50 mg/mL

----------
Experiment: Solubility assessment of Sample 1 (majorly Form 1) in 24 solvent systems
Format: physicochemical
Details: acetonitrile, 50 °C, organic solvent or mixture, thermodynamic from solid, Acetonitrile; sample ID A19; read-out: Solubility assessment 20 vol.
reported.endpoint: solubility

Output solubility of CCNCCc1ccc(CN(CC)c2cc(OC)ccc2[C@@H]2CCc3cc(O)ccc3C2)cc1.Cl.Cl [Sample 1]
< 50 mg/mL
